- MEASURED ON: SMARCA2 (Homo sapiens)
- Construct: endogenous in cells; host or cells: HT1080 (CRISPR HiBiT knock-in clone, generated in house)
- ASSAY NOTES: SMARCA2 HiBiT degradation assay (cellular)
- Assay type: cell-based
- PROTOCOL CONDITIONS: 6 h incubation; HiBiT-tagged SMARCA2, luminescence read-out; table head names A549; read-out: HiBit A549 SMARCA2 IP (nM) 6 h
Listed next: entries and their corresponding log10 of DC50.
Scale: decimal log of DC50, DC50 in nM.

Please review the following examples before continuing.
MOLECULE | MEASURED ON | log10 of DC50
Nc1nnc(-c2ccccc2O)cc1N1CCC(C(=O)N2CCC3(CC2)CN(C(=O)C2CCN(c4ccc5c(c4)C(=O)N(C4CCC(=O)NC4=O)C5=O)CC2)CCO3)(c2ccccc2)CC1 (centres unmarked) | SMARCA2 (Homo sapiens) | 1.73
Nc1nnc(-c2ccccc2O)cc1N1CCC(C(=O)N2CC3(CN(CC4CCN(c5ccc6c(c5)C(=O)N(C5CCC(=O)NC5=O)C6=O)CC4)C3)C2)(c2ccccc2)CC1 (centres unmarked) | SMARCA2 (Homo sapiens) | 1.04
Nc1nnc(-c2ccccc2O)cc1N1CCC(C(=O)N2CC3(CCN(C(=O)C4CCN(c5ccc6c(c5)C(=O)N(C5CCC(=O)NC5=O)C6=O)CC4)C3)C2)(c2ccccc2)CC1 (centres unmarked) | SMARCA2 (Homo sapiens) | 2.17
Nc1nnc(-c2ccccc2O)cc1N1CC2CCC(C1)N2c1cccc(OCCN2CCN(CCCC3CCN(c4ccc5c(c4)C(=O)N(C4CCC(=O)NC4=O)C5=O)CC3)CC2)c1 (racemic) | SMARCA2 (Homo sapiens) | 0.30

Moving on to the next molecule.
Note to self: log10 of DC50 recorded for Nc1nnc(-c2ccccc2O)cc1OCC(CNC(=O)CN1CCC(c2ccc(OC3CCC(=O)NC3=O)cc2)CC1)c1ccccc1 (racemic) was 2.26

---

- MEASURED ON: SMARCA2 (Homo sapiens, UniProt P51531)
- Construct: endogenous in cells; host or cells: HT1080 (CRISPR HiBiT knock-in clone, generated in house)
- Sequence (P51531 whole entry): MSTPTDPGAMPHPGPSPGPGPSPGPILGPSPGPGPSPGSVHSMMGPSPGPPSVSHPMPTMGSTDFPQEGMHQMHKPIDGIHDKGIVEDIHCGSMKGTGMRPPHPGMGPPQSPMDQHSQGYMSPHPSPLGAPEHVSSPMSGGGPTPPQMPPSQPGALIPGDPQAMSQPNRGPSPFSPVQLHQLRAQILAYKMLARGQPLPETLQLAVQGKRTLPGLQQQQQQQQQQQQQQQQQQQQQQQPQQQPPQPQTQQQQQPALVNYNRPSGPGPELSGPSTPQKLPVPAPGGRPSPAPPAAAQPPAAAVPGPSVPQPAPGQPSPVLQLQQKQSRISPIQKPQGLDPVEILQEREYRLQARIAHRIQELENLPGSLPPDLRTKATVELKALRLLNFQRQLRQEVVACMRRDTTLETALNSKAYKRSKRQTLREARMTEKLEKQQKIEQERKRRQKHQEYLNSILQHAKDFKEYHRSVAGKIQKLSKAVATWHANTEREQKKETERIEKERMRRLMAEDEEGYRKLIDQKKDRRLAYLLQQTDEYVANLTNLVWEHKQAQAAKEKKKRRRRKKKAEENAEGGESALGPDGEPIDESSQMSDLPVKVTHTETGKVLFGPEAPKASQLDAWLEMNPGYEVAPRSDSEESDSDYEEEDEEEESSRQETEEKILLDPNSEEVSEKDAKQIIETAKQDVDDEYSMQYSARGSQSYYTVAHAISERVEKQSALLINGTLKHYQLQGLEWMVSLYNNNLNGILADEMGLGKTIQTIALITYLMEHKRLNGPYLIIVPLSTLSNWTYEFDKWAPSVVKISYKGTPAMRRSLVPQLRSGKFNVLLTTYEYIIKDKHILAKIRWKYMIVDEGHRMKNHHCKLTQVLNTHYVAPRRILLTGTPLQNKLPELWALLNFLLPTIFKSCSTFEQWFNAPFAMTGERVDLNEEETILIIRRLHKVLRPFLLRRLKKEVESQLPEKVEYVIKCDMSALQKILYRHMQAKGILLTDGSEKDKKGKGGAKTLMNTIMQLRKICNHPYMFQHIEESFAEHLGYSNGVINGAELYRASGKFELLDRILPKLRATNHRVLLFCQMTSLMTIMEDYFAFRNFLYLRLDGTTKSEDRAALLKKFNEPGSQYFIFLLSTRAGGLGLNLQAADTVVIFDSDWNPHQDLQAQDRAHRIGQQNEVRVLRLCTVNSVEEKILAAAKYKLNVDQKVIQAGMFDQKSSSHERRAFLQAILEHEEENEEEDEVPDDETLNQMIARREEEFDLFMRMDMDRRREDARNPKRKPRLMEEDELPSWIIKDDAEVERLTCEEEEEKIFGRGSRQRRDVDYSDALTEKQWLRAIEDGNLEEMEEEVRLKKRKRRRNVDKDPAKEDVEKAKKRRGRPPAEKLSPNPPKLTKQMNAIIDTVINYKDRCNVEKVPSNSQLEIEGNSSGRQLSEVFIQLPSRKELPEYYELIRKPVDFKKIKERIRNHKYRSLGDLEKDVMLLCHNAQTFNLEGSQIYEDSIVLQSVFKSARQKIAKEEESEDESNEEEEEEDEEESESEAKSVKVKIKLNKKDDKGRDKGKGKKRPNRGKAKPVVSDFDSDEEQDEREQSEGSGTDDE
- ASSAY NOTES: SMARCA2 HiBiT degradation assay (cellular)
- Format: cell-based
- PROTOCOL CONDITIONS: A549, 6 h incubation; Emax = amount of residual protein remaining in the cell following compound treatment; table head names A549
OBSERVABLE: Emax (%)
I only need the number, in %, no unit after it.

Please review the following examples before continuing.
COMPOUND | MEASURED ON | MEASUREMENT UNIT | VALUE
Nc1nnc(-c2ccccc2O)cc1OC1CCCN(c2ccc(N3CCN(CCCCCCCCCn4cc(CCNc5cccc6c5C(=O)N(C5CCC(=O)NC5=O)C6=O)nn4)CC3)cc2)C1 (centres unmarked) | SMARCA2 (Homo sapiens, UniProt P51531) | % | 52
Nc1nnc(-c2ccccc2O)cc1N1CC(Oc2cccc(C(=O)N3CCN(C(=O)CCCCCCCCCNc4cccc5c4C(=O)N(C4CCC(=O)NC4=O)C5=O)CC3)c2)C1 (centres unmarked) | SMARCA2 (Homo sapiens, UniProt P51531) | % | 41
Nc1nnc(-c2ccccc2O)cc1N1CC2CCC(C1)N2c1cccc(OCCN2CCN(C(=O)N3CCN(c4ccc5c(c4)C(=O)N(C4CCC(=O)NC4=O)C5=O)CC3)CC2)c1 (racemic) | SMARCA2 (Homo sapiens, UniProt P51531) | % | 39
Nc1nnc(-c2ccccc2O)cc1OC1CCCN(c2ccc(N3CCN(CCCCC(=O)N4CCC(n5cc(COc6cccc7c6C(=O)N(C6CCC(=O)NC6=O)C7=O)nn5)CC4)CC3)cc2)C1 (racemic) | SMARCA2 (Homo sapiens, UniProt P51531) | % | 42

Note to self: Emax recorded for Nc1nnc(-c2ccccc2O)cc1N1CCC(C(=O)N2CC3(CCN(CCC4CCN(c5ccc6c(c5)C(=O)N(C5CCC(=O)NC5=O)C6=O)CC4)C3)C2)(c2ccccc2)CC1 (centres unmarked) was 37
